- target.entity: UniProtKB Q9P0L2
- Sequence (Q9P0L2 whole entry, looked up): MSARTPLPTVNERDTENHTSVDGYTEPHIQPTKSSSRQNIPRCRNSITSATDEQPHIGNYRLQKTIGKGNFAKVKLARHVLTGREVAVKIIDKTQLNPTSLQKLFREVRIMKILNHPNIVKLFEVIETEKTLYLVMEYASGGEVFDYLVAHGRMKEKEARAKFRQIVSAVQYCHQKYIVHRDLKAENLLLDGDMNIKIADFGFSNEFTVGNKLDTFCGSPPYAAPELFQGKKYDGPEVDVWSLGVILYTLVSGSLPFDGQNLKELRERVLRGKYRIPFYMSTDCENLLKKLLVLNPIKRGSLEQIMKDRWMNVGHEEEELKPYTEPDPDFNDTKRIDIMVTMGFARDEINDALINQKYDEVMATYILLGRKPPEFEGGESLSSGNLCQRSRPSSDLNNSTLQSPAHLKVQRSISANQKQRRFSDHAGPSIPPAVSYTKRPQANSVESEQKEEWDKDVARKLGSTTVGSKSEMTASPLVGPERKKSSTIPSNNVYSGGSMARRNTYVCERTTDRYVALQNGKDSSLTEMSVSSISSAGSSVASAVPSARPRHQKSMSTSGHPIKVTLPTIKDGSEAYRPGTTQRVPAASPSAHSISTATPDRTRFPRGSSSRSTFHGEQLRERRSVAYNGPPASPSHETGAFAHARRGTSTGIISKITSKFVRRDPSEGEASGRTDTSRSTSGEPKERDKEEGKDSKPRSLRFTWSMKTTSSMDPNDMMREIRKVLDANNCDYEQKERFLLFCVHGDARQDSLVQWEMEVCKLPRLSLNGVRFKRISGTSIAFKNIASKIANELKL
- protocol.summary: radiometric filter-binding kinase assay
- condition.label: compound 0.1 µM
experimental.readout: residual activity (%)

{"columns": ["structure", "experimental.readout", "measured.value"],
 "data": [
  ["O=C(O)c1ccc(-c2c[nH]c3ncc(-c4ccccc4)cc23)cc1C1CCCC1", "residual activity", 97],
  ["COc1ccc(N(C(=O)Nc2c(C)cccc2C)c2cc(Nc3ccc(N4CCN(C)CC4)cc3)ncn2)c(OC)c1", "residual activity", 87],
  ["CCn1c(-c2nonc2N)nc2cncc(CNC3CCNCC3)c21", "residual activity", 85]
]}

* * *

- target.entity: BRSK2 (human) (UniProt Q8IWQ3)
- Sequence (Q8IWQ3 whole entry, looked up): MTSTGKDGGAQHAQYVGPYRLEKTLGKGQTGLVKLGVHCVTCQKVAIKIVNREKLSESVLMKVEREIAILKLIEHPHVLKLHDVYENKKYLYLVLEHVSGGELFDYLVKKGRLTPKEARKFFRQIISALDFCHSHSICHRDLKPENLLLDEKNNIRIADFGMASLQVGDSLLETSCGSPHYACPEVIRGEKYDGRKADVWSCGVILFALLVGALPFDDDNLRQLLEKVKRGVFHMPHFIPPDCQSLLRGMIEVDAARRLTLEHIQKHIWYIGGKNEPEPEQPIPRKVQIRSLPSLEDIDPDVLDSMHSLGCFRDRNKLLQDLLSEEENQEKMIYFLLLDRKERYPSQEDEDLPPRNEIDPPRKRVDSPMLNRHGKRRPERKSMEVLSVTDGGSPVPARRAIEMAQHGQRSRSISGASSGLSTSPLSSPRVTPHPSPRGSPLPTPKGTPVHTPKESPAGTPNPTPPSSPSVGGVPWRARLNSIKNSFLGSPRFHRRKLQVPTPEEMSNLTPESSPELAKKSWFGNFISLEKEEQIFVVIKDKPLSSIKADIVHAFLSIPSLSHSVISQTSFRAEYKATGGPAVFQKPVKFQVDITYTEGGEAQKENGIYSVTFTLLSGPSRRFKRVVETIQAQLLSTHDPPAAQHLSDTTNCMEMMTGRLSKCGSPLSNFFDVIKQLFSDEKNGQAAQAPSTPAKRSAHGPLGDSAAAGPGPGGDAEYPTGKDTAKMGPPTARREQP
- protocol.summary: radiometric filter-binding kinase assay
- condition.label: compound 1.0 µM
experimental.readout: residual activity (%)

// worked examples, residual activity included
{"columns": ["compound", "target.entity", "residual activity / %"],
 "data": [
  ["CCNc1nc(Nc2cc(F)c(C(=O)N3CCOCC3)cc2OC)ncc1C(F)(F)F", "BRSK2 (human) (UniProt Q8IWQ3)", 80],
  ["CC1=C(CO)C(=O)O[C@@H]([C@@H](C)[C@H]2CC[C@H]3[C@@H]4C[C@H]5O[C@]56[C@@H](O)C=CC(=O)[C@]6(C)C4CC[C@]23C)C1 (stereo partly specified)", "BRSK2 (human) (UniProt Q8IWQ3)", 103],
  ["COc1ccc(N(C(=O)Nc2c(C)cccc2C)c2cc(Nc3ccc(N4CCN(C)CC4)cc3)ncn2)c(OC)c1", "BRSK2 (human) (UniProt Q8IWQ3)", 88]
]}

1 = C=C1C(=O)OC2C1CC/C(C)=C/CCC1(C)OC21 (stereo unspecified)
2 = COc1ccc2c(c1)c1c3c(c4c5ccccc5n(C)c4c1n2CC(O)CN(C)C)C(=O)NC3=O (stereo unspecified)
3 = Oc1ccc(/C=C/c2cc(O)cc(O)c2)cc1
Sequence the entries by residual activity, beginning with the highest number. Reply: labels, ordered per the request.
1, 3, 2
